- Subject of test: T1, 285bZIP V288G (human, UniProt P16220-1 285-339, C300S;C310S;C337S;V288G)
- T1 sequence: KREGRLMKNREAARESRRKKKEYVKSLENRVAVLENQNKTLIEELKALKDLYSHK
- Assay remarks: stopped-flow fluorescence (koff/kon); 10 mM Mg2+; 10 mM MES pH 6.5, 150 mM NaCl, 10 mM MgCl2, 0.05% Tween-20, 25 C; NMR: 10 mM Tris-d11, 150 mM NaCl, 10 mM MgCl2, 1 mM NaN3, 5% D2O (NOE at 25 C)
- Experimental parameters: protein: recombinant; tags: extra N-terminal Gly; chain copies: 2; label: 5' Alexa Fluor 488; hairpin (self-annealing, 11 bp stem, CCCC loop)
Measured metric: Kd (nM)
# unit: nM | format: bare number

Q: Answer with reported Kd of CCTGACGTCAGCCCCCTGACGTCAGG (structured_DNA) [AlexaFluor488-CREh]
Ans: 2.77
